Below: a set of entries, each annotated with reported Fold Increase in number of viable cells.
tested on: mouse neurospheres; test: Different acidic neutralizing solutions after NaOH dissociation of mouse neurospheres; trypan blue exclusion, serial subculture; conditions: passage 3
Structures can show the parent of a compound that is named as a salt.
readout: Fold Increase in number of viable cells

> print(dat)
                      compound                                  readout  assay.result
1  Cl [HCl, hydrochloric acid]  Fold Increase in number of viable cells            12
2                   O=P(O)(O)O  Fold Increase in number of viable cells             6
3                  O=S(=O)(O)O  Fold Increase in number of viable cells             8
4                      CC(=O)O  Fold Increase in number of viable cells            10
